Values compiled from the supplement of paper PMC11451515.

Would you kindly list cell viability for each of these compounds?
# System: SEM cells
# protocol_details: cell viability relative to DMSO control; higher = less cytotoxic
# stated_conditions: HPLM + 10% dialyzed FBS; 48 h; 15.4 µM

State its cell viability for this compound: `CC(=O)N1CCN(c2ccc(OC[C@H]3CO[C@](Cn4ccnc4)(c4ccc(Cl)cc4Cl)O3)cc2)CC1`
87.1%

State its cell viability for this compound: `ClC1=CC(=CC=C1)N2CCN(CCCN3\N=C4\C=C/C=C\N4C3=O)CC2`
131%

State its cell viability for this compound: `COc1cc(C(C)=O)ccc1OCCCN1CCC(c2noc3cc(F)ccc23)CC1`
128%

State its cell viability for this compound: `Cc1cccc(C#Cc2ccccc2)n1`
106%

State its cell viability for this compound: CC(=O)CC(C1=CC=CC=C1)C/2=C(O)/C3=CC=CC=C3OC2=O (centres undefined)
113%

State its cell viability for this compound: `CCOC(=O)N1CCN(/[N+]([O-])=N/Oc2ccc([N+](=O)[O-])cc2[N+](=O)[O-])CC1`
22.4%

State its cell viability for this compound: `O=C1Nc2ccc(Cl)cc2[C@@](C#CC2CC2)(C(F)(F)F)O1`
96%

State its cell viability for this compound: `CCCCNc1cc(C(=O)O)cc([S+](N)(=O)[O-])c1Oc1ccccc1`
116%

State its cell viability for this compound: `CCOC(=O)[C@H](CCc1ccccc1)N[C@@H](C)C(=O)N1CCC[C@H]1C(=O)O`
112%

State its cell viability for this compound: `NC(CO)(CO)CCc1ccc(Sc2cccc(OCc3ccccc3)c2)cc1Cl`
53.9%

State its cell viability for this compound: `COc1cc(Nc2ncc(F)c(Nc3ccc4c(n3)NC(=O)C(C)(C)O4)n2)cc(OC)c1OC`
4.48%

State its cell viability for this compound: `CCn1c(-c2nonc2N)nc2cncc(CNC3CCNCC3)c21`
60.7%

State its cell viability for this compound: `CC(C)[C@@H](C[S+](=O)([O-])C(C)C)N1C(=O)[C@@](C)(CC(=O)O)C[C@H](c2cccc(Cl)c2)[C@H]1c1ccc(Cl)cc1`
31.8%

State its cell viability for this compound: `O=C(Nc1cccc(Nc2ncc(Br)c(NCCc3cnc[nH]3)n2)c1)N1CCCC1`
5.65%

State its cell viability for this compound: `CC(C)(C)c1cc(C=C(C#N)C#N)cc(Br)c1O`
108%

State its cell viability for this compound: `C[C@@H]1COCCN1C\2=C\C(=O)N\3CC[C@H](N(CC4=CN=CC(=C4)Cl)C3=N2)C(F)(F)F`
43.2%

State its cell viability for this compound: `COC[C@@H](NC(C)=O)C(=O)NCc1ccccc1`
120%

State its cell viability for this compound: `NC1=NC=C(C=C1)C2=CC=C3N=CC\4=C(N(C(=O)\C=C4)C5=CC(=CC=C5)C(F)(F)F)C3=C2`
8.87%

State its cell viability for this compound: `COc1cc2c(Nc3ccc(Cl)c(Cl)c3F)ncnc2cc1OC[C@@H]1C[C@@H]2CN(C)C[C@@H]2C1`
47%

====

# System: P12-Ichikawa
# protocol_details: cell viability relative to DMSO control; higher = less cytotoxic
# stated_conditions: RPMI 5 mM glucose + 10% dialyzed FBS; 48 h; 1.71 µM
value_type: cell viability (%)
Entry rule: numbers only, all in %.

Fill in cell viability for `c1cc(CN2CCCNCCNCCCNCC2)ccc1CN1CCCNCCNCCCNCC1` tested with P12-Ichikawa.
101

Fill in cell viability for `COc1cc(Nc2ncc(F)c(Nc3ccc4c(n3)NC(=O)C(C)(C)O4)n2)cc(OC)c1OC` tested with P12-Ichikawa.
112

Fill in cell viability for CC1(C)OC2CC3C4CC(F)C/5=C/C(=O)/C=C\C5(C)C4C(O)CC3(C)[C@@]2(O1)C(=O)CO (stereo partly drawn) tested with P12-Ichikawa.
52.1

Fill in cell viability for `O=C1Nc2ccc(Cl)cc2[C@@](C#CC2CC2)(C(F)(F)F)O1` tested with P12-Ichikawa.
77.7

Fill in cell viability for `CC(C)(C)C(=O)OCOP(=O)(COCCn1cnc2c(N)ncnc21)OCOC(=O)C(C)(C)C` tested with P12-Ichikawa.
46.7

Fill in cell viability for `OC[C@H](Cc1ccccc1)Nc1nc(Oc2ccc3c(c2)CCC3)nc2c1ncn2Cc1ccc(-c2ccccc2)cc1` tested with P12-Ichikawa.
87.7

Fill in cell viability for `O=C(/C=C/c1c(C(=O)[O-])[nH]c2cc(Cl)cc(Cl)c12)Nc1ccccc1` tested with P12-Ichikawa.
107

Fill in cell viability for `Cc1cccc(-c2nn(C(=S)Nc3ccccc3)cc2-c2ccnc3ccccc23)n1` tested with P12-Ichikawa.
108

Fill in cell viability for `CC1(C)C(=O)N(CCN2CCC(C(=O)c3ccc(F)cc3)CC2)c2ccccc21` tested with P12-Ichikawa.
123

Fill in cell viability for `O=C(O)c1ccc(-n2nc(-c3ccccc3O)nc2-c2ccccc2O)cc1` tested with P12-Ichikawa.
96.7

Fill in cell viability for `CN1CCC(CC1)COC2=CN=C(N=C2)C3=CC(=CC=C3)CN4/N=C(\C=C/C4=O)C5=CC(=CC=C5)C#N` tested with P12-Ichikawa.
120

Fill in cell viability for `Clc1cc(Cl)cc(CNc2ncncc2-c2ccc3c(c2)OCO3)c1` tested with P12-Ichikawa.
102

Fill in cell viability for `CC(C)[C@@H](C[S+](=O)([O-])C(C)C)N1C(=O)[C@@](C)(CC(=O)O)C[C@H](c2cccc(Cl)c2)[C@H]1c1ccc(Cl)cc1` tested with P12-Ichikawa.
59.7

Fill in cell viability for CCOc1cc(N)c(Cl)cc1C(=O)NCC1CN(Cc2ccc(F)cc2)CCO1 (stereo not drawn) tested with P12-Ichikawa.
112

Fill in cell viability for `Oc1ccc(/C=C/c2cc(O)cc(O)c2)cc1` tested with P12-Ichikawa.
108

Fill in cell viability for CCC1(c2ccc(N)cc2)CCC(=O)NC1=O (stereo not drawn) tested with P12-Ichikawa.
96.4

Fill in cell viability for `NC(CO)(CO)CCc1ccc(Sc2cccc(OCc3ccccc3)c2)cc1Cl` tested with P12-Ichikawa.
100

Fill in cell viability for `C[N+]1(C)[C@@H]2C[C@@H](OC(=O)[C@H](CO)c3ccccc3)C[C@H]1[C@@H]1O[C@@H]12.[Br-]` tested with P12-Ichikawa.
89.9
